Cited source: patent US20200207841A1

- Assayed target: T1, EDIII-DV3 (Dengue virus serotype 3 (DV3), UniProt Q6YMS3 579-671)
- T1 construct: also called EDIII of DV3; EDIII-DVIII
- T1 sequence (Q6YMS3 579-671 limits assumed): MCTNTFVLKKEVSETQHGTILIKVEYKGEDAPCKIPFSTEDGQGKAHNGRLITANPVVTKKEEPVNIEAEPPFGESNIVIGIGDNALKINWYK
Experimental readout: Kd (nM)

- VH_G27_del (antibody, V domains shown) VH: VKLLEQSGAELVKPGASVRLSCTASFNIKDTYMSWVKQRPEQGLEWIGRIDPENGDTKYDPKFQGKATITADTSSNTAYLHLSSLTSGDTAVYYCSRGWEGFAYWGQGTLVTVSA VL: ELVMTQTPASLAVSLGQRATISCRASENVDKYGNSFMHWYQQKAGQPPKLLIYRASELQWGIPARFSGSGSRTDFTLTINPVEADDVATYFCQRSNEVPWTFGGGTKLEIKR: 2.39
- 4E5A (antibody, V domains shown, also called 4E11-5A; E45A) VH: VKLLEQSGAELVKPGASVRLSCTASGFNIKDTYMSWVKQRPEQGLEWIGRIDPENGDTKYDPKFQGKATITADTSSNTAYLHLSSLTSGDTAVYYCSRGWEGFAYWGQGTLVTVSA VL: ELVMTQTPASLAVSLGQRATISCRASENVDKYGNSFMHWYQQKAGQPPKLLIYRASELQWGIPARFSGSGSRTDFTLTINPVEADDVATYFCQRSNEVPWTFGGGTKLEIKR: 2.72
- VH_G27P (antibody, V domains shown, also called 4E5-G27P; copies: 2 + 2) VH: VKLLEQSGAELVKPGASVRLSCTASPFNIKDTYMSWVKQRPEQGLEWIGRIDPENGDTKYDPKFQGKATITADTSSNTAYLHLSSLTSGDTAVYYCSRGWEGFAYWGQGTLVTVSA VL: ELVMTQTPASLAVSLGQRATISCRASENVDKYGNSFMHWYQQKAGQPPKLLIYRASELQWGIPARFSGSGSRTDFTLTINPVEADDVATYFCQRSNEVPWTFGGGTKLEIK: 4.52
- VH_G27A (antibody, V domains shown) VH: VKLLEQSGAELVKPGASVRLSCTASAFNIKDTYMSWVKQRPEQGLEWIGRIDPENGDTKYDPKFQGKATITADTSSNTAYLHLSSLTSGDTAVYYCSRGWEGFAYWGQGTLVTVSA VL: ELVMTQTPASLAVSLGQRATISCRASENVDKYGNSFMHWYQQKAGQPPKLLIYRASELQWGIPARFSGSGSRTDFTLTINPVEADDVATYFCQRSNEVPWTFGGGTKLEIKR: 3.24
